The measured values listed here are drawn from patent US11091495B2.

Reported IC50 values follow for various compounds
# Tested on: PRC2-mediated histone H3 Lys27 trimethylation in Pfeiffer cells (EZH2 A677G)
# testSummary: Tri-Methyl Histone H3 (Lys 27) sandwich ELISA in Pfeiffer cells
# Assay type: cell-based, human
# measurementContext: Homo sapiens, 96 hours incubation, read-out: IC50 (nM), Inhibition of EZH2-mediated Histone H3 Trimethylation
endpoint: IC50

[[record]]
compound = "N#Cc1cn2c(NCc3c(F)ccc4c3CCO4)ncc(-c3cnc(C4CC4)cn3)c2n1 [Example 70]"
assaysystem = "PRC2-mediated histone H3 Lys27 trimethylation in Pfeiffer cells (EZH2 A677G)"
endpoint = "IC50"
recordedmeasurement = "< 100 nM"

[[record]]
compound = "CN1CCC1c1ccc(-c2cnc(NCc3c(F)ccc4c3CCO4)n3cc(C#N)nc23)cc1 (stereo not drawn) [Example 221]"
assaysystem = "PRC2-mediated histone H3 Lys27 trimethylation in Pfeiffer cells (EZH2 A677G)"
endpoint = "IC50"
recordedmeasurement = "100 to 500 nM"

[[record]]
compound = "Cc1nc(N2CCOCC2)ccc1-c1cnc(NCc2c(F)ccc3c2CCO3)n2cc(C#N)nc12 [Example 56]"
assaysystem = "PRC2-mediated histone H3 Lys27 trimethylation in Pfeiffer cells (EZH2 A677G)"
endpoint = "IC50"
recordedmeasurement = "100 to 500 nM"


====

# System: Karpas 422 cells (EZH2 Y641N)
# testSummary: Karpas 422 cell viability (Cell Titre Glo)
# Format: cell-based, human
# measurementContext: Day 4, Day 7 or Day 11 (time point not given), read-out: IC50 (nM), Inhibiting Proliferation of Cells Expressing an Activating Mutant Form of EZH2
endpoint: IC50

[[record]]
compound = "N#Cc1cn2c(NCc3c(F)ccc4c3CCO4)ncc(-c3cnn(CC4CCOC4)c3)c2n1 (stereo not shown) [compound 154]"
recordedmeasurement = "250 to 500 nM"

